# MEASURED TARGET: 4-aminobutyrate aminotransferase, mitochondrial (Homo sapiens)
# Sequence (P80404 whole entry): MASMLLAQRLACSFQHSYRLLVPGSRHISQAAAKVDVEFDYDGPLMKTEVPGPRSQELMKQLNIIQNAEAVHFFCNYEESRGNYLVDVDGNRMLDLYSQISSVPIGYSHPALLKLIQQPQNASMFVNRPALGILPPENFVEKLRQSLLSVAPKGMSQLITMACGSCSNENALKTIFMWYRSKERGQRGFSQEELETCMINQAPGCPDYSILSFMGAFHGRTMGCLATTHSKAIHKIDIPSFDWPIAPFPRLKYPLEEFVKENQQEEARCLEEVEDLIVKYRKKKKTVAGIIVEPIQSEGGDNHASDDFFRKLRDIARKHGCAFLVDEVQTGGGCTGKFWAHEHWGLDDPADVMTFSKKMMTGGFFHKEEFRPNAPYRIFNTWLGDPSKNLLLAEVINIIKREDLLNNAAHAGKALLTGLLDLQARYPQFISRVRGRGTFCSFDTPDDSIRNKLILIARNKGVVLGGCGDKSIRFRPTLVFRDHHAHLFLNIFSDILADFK
Assignment: determine reported IC50 for the given compounds.

Some compounds with known IC50 results, for comparison:
>  <COMPOUND>
Nc1cccc(C(=O)O)c1 [3-AMINOBENZOIC ACID]

>  <VAL>
> 5 mM

$$$$
>  <COMPOUND>
Nc1ccccc1C(=O)O [ANTHRANILIC ACID]

>  <VAL>
> 5 mM

$$$$

Alright, here's another compound for you.
Look up IC50: NCc1ccccc1CC(=O)O
> 5 mM

----------
# MEASURED TARGET: UniProt:P80404
# TEST: Activity at GABA-AT assessed as substrate activity relative to gamma amino butyric acid
# Parameters: concentration or dose not given beside the values
MEASUREMENT NAME: Relative stimulatory activity (%)
Give bare numbers, in %.

Some compounds with known Relative stimulatory activity results, for comparison:
>  <STRUCTURE SMILES STRING>
NCc1ccccc1C(=O)O

>  <MEASURED TARGET>
UniProt:P80404

>  <Relative stimulatory activity, %>
0

$$$$
>  <STRUCTURE SMILES STRING>
Nc1ccccc1C(=O)O

>  <MEASURED TARGET>
UniProt:P80404

>  <Relative stimulatory activity, %>
0

$$$$
>  <STRUCTURE SMILES STRING>
Nc1cccc(CC(=O)O)c1

>  <MEASURED TARGET>
UniProt:P80404

>  <Relative stimulatory activity, %>
0

$$$$
>  <STRUCTURE SMILES STRING>
NCc1ccccc1CC(=O)O

>  <MEASURED TARGET>
UniProt:P80404

>  <Relative stimulatory activity, %>
5.65

$$$$

Each compound below has a recorded value; state its Relative stimulatory activity.
1. NCc1cccc(CC(=O)O)c1
2. NCc1cccc(C(=O)O)c1
3. Nc1cccc(C(=O)O)c1

[0.78, 3.42, 0]
